- target: human somatostatin receptor subtype SSTR4 (human) (UniProt P31391)
- Sequence (P31391 whole entry): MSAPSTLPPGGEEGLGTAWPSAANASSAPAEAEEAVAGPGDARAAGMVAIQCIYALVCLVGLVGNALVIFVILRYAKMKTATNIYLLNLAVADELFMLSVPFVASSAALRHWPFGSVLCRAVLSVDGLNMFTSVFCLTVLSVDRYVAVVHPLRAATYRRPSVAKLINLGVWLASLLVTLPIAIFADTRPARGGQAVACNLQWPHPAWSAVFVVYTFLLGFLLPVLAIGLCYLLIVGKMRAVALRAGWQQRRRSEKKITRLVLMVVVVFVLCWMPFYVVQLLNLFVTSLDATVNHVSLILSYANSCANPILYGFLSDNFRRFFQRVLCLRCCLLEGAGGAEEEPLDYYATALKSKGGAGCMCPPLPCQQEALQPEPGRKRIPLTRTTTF
- assay-summary: FACS, transfected HEK-293 cells; normalised to Compound 1
*1 amine or outer side, *2 acyl side, *3 side chain or, on linkers, in order; H or OH if unused. Bridges are numbered along the chain shown (N, C = ends). Primed or numbered codes have the meaning given here. [ ]: non-standard residue; d: D form. N(2-mercaptoethyl)Gly = O=C(CN(CCS[*:3])[*:1])[*:2]; FITC′ = fluorescein isothiocyanate; Orn = NCCC[C@H](N)C(=O)O; GABA = NCCCC(=O)O
readout-name: Binding affinity relative to Compound 1 (% of Compound 1)

Guide cases for Binding affinity relative to Compound 1 (% of Compound 1), answers given:
{FITC′-GABA}-[dF]CY[dW][Orn]TF[N(2-mercaptoethyl)Gly]-NH2 (disulfide 2-8) [Compound 7] ... 7
{FITC′-GABA}-[dF]CFW[dW]RTF[N(2-mercaptoethyl)Gly]-NH2 (disulfide 2-9) [Compound 15] ... 40
XCFWXXTFX (FITC-GABA-DPhe-Cys*-Phe-Trp-DTrp-Orn-Thr-Phe-GlyS2*-NH2 (* = S-S bond; GlyS2 = N-thioethyl glycine; Orn = ornithine; C-terminal amide)) [Compound 3] ... 59

P = {FITC′-GABA}-[dF]RCF[dW][Orn]TF[N(2-mercaptoethyl)Gly]-NH2 (disulfide 3-9) [Compound 5]
Q = {FITC′-GABA}-[dF]CYW[dW]KTF[N(2-mercaptoethyl)Gly]-NH2 (disulfide 2-9) [Compound 4]
R = XCFWXKTFX (FITC-GABA-DPhe-Cys*-Phe-Trp-DTrp-Lys-Thr-Phe-GlyS2*-NH2 (* = S-S bond; GlyS2 = N-thioethyl glycine; FITC-GABA on the N-terminal amine; C-terminal amide)) [Compound 1]
Problem: Arrange the 3 binders from largest to smallest Binding affinity relative to Compound 1 (% of Compound 1). List the labels, following the order given in the request.
Solution: R, Q, P
(R: 100, Q: 36, P: 4)
